Below, each entry is listed with its recorded Kp at 0.5 h.
Test method notes: Evaluation of brain penetration properties
Assay type: in vivo, BALB/cA mice
Stated conditions: mouse, brain; 0.5 hours after oral 50 mg/kg/day, BALB/cA mice; read-out: Kp value (Compound concentration in brain/plasma)
// return just the number, without any unit appended

Please review the following examples before continuing.
[ask] Endpoint output: Kp at 0.5 h of C=CC(=O)N1C[C@H](n2c(C#CC3CC3)c(C(=O)NC(C)(C)c3ccccc3)c3c(N)ncnc32)C[C@@H]1C . Value?
[reply] 0.18

[ask] # get_value(readout='Kp at 0.5 h', item= C=CC(=O)N1C[C@H](n2c(C#CC3CC3)c(C(=O)N[C@H](C)c3ccccc3)c3c(N)ncnc32)C[C@@H]1C )
[reply] 0.23

[ask] Recorded Kp at 0.5 h of C=CC(=O)N1C[C@H](n2c(C#CC)c(C(=O)N[C@H](CC)c3ccccc3)c3c(N)ncnc32)C[C@@H]1C , please.
[reply] 0.34

---
[ask] // query Kp at 0.5 h value for entry C=CC(=O)N1C[C@H](n2c(C#CC)c(C(=O)N[C@H](C)c3cccc(Cl)c3)c3c(N)ncnc32)C[C@@H]1C
[reply] 0.17

[ask] Please look up its Kp at 0.5 h: C=CC(=O)N1C[C@H](n2nc(C(=O)Nc3ccc(CC(=O)N(C)C)c(C)c3C)c3c(N)ncnc32)C[C@@H]1C [Comp. Ex. 2, reference compound]
[reply] 0.005
